B1: KRT71 (parent)
chain: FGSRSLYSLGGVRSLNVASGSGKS

# Variants of: B1
# Protocol Summary: protein stability index of a GFP-peptide fusion (GPS, HEK-293T) (PSI 1-6); higher = more stable;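 also: lentivirally expressed fusions sorted by FACS into six bins by GFP to DsRed ratio, PSI derived from sequencing read proportions per bin multiplied by bin number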
# Measurement Setup: c terminus: a fixed tail appended
Parameter: protein stability index
Please give only the number in your answer, with no unit.

protein stability index in this record for `R13E` : 1.86

protein stability index in this record for `N16K` : 2.02

protein stability index in this record for `G10T` : 2.05

protein stability index in this record for `L9F` : 1.88

protein stability index in this record for `F1M` : 3.75

protein stability index in this record for `S24H` : 1.66

protein stability index in this record for `S19R` : 1.92

protein stability index in this record for `S14Q` : 1.86

protein stability index in this record for `G10C` : 3.19

protein stability index in this record for `L15E` : 2.15

protein stability index in this record for `S3M` : 2.21

protein stability index in this record for `L6R` : 2.65

protein stability index in this record for `L9D` : 2.56

protein stability index in this record for `G11W` : 2.62

protein stability index in this record for `S8I` : 1.54

protein stability index in this record for `G22A` : 1.53

protein stability index in this record for `G20W` : 1.82

protein stability index in this record for `S24K` : 2.22

protein stability index in this record for `V12A` : 1.81

protein stability index in this record for `G22C` : 1.69

protein stability index in this record for `S24T` : 1.81

protein stability index in this record for `G10L` : 2.6
